- Tested on: UACC-257
- assay_details: NCI tumour cell line growth inhibition, 48 h
Activity calls are given as the source filed them. Rule as the data show it: active = GI50 up to about 1.1 µM and inactive = higher.
measure_name: GI50

> print(dat)
                                    compound  assay.system  recorded.measurement
 1       O/N=C(\C=N\O)c1ccc2c(c1)Sc1ccccc1O2      UACC-257    19.5 µM (inactive)
 2  CC1(C)Cc2c(c3ccccc3c3nc4c(nc23)c2c(c3ccccc34)OC(C)(C)C2)O1      UACC-257   > 100 µM (inactive)
 3  CC(=O)NCCCCN(CCCNC(C)=O)C(=O)CNS(=O)(=O)c1cccc2c(N(C)C)cccc12      UACC-257   > 100 µM (inactive)
 4  Cc1cc(N(CCC#N)CCC#N)ccc1/C=N/NC(=O)c1cc(Cl)ccc1O      UACC-257   > 100 µM (inactive)
 5  Nc1nc(N)c(-c2ccccc2)c(CCC(=O)Nc2ccc(Cl)cc2)n1      UACC-257   > 100 µM (inactive)
 6              CCOC(=O)C1=C(Cl)c2cccnc2C1=O      UACC-257    39.7 µM (inactive)
 7  CC(C)(CN1CCCCC1)C(=O)CC(SCCS(=O)(=O)O)c1ccc(Cl)cc1 (stereo not given)      UACC-257    6.67 µM (inactive)
 8  CC(C)(C)OC(=O)NCC(c1c[nH]c2cc(Br)ccc12)c1c[nH]c2cc(Br)ccc12      UACC-257    19.9 µM (inactive)
 9  c1cncc(-c2cc(-c3cc(-c4cccnc4)[nH]n3)n[nH]2)c1      UACC-257   > 100 µM (inactive)
10  Cc1cc(S(=O)(=O)Nc2nc(N)nc(N3N=CCC3C)n2)c(S)cc1Cl (stereo not given)      UACC-257    > 10 µM (inactive)
